Reference source for all entries: patent US20190359687A1

Molecular target: T1, native human glycophorin A protein (human, UniProt P02724 20-150)
T1 construct: mature; also called Hu-nat GPA
T1 sequence (looked up): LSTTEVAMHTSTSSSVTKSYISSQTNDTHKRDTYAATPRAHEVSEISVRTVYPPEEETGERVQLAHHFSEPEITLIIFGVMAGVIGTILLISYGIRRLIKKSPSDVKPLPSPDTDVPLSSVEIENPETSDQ
Experiment: ELISA, Fab on coated native human GPA
Quick reference: binding in ELISA relative to parental Fab of the listed items.
measured quantity: binding in ELISA relative to parental Fab

binder	recorded value
TPP-5836, Hu6C12-24 Fab variant VL: (S24R, A26S, S49A, P54Q, F95Y); VH: (I48M, L70M, T72R) (Fab, V domains shown, Built on the parental Fab TPP-4935) VH: EVQLVQSGAEVKKPGASVKVSCKASGYTFTTYTIHWVRQAPGQGLEWMGYINPSSDYTRYNPKFKDRVTMTRDKSTSTAYMELRSLRSDDTAVYYCQTGTRDYWGQGTTVTVSS VL: DIQLTQSPSFLSASVGDRVTITCRASSSVSYIYWFQQKPGKAPKLLIYATSTLQSGVPSRFSGSGSGTEYTLTISSLQPEDFATYYCHQRNSFPYTFGQGTKLEIKR	5.1 relative to parental Fab
TPP-5675, Hu6C12-24 Fab variant VH: (I48M, L70M, T72R) (Fab, V domains shown, Built on the parental Fab TPP-4935) VH: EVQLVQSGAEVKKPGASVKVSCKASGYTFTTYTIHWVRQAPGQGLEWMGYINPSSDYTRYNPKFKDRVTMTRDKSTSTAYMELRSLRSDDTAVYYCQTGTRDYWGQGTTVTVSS VL: DIQLTQSPSFLSASVGDRVTITCSAASSVSYIYWFQQKPGKAPKLLIYSTSTLPSGVPSRFSGSGSGTEYTLTISSLQPEDFATYYCHQRNSFPFTFGQGTKLEIKR	0.8 relative to parental Fab
TPP-5841, Hu6C12-24 Fab variant VL: (S24R, A26S, S49A, P54Q, F95Y); VH: (D66G, L70M) (Fab, V domains shown, Built on the parental Fab TPP-4935) VH: EVQLVQSGAEVKKPGASVKVSCKASGYTFTTYTIHWVRQAPGQGLEWIGYINPSSDYTRYNPKFKGRVTMTTDKSTSTAYMELRSLRSDDTAVYYCQTGTRDYWGQGTTVTVSS VL: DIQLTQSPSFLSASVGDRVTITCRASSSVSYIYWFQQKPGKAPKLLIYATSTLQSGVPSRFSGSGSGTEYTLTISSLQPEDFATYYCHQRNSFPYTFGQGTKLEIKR	5.8 relative to parental Fab
TPP-4935, humanized 6C12 parental Fab (Hu6C12-24) (Fab, V domains shown, also called parent Fab; TPP-4935 (Parental)) VH: EVQLVQSGAEVKKPGASVKVSCKASGYTFTTYTIHWVRQAPGQGLEWIGYINPSSDYTRYNPKFKDRVTLTTDKSTSTAYMELRSLRSDDTAVYYCQTGTRDYWGQGTTVTVSS VL: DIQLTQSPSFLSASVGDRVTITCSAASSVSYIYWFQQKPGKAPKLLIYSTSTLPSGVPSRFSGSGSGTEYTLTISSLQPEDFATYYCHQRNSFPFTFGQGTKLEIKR	1 relative to parental Fab
TPP-5338, Hu6C12-24 Fab variant VH: (E1Q, I48M, L70M, T72R, K74T, R84S, D89E) (Fab, V domains shown, Built on the parental Fab TPP-4935) VH: QVQLVQSGAEVKKPGASVKVSCKASGYTFTTYTIHWVRQAPGQGLEWMGYINPSSDYTRYNPKFKDRVTMTRDTSTSTAYMELSSLRSEDTAVYYCQTGTRDYWGQGTTVTVSS VL: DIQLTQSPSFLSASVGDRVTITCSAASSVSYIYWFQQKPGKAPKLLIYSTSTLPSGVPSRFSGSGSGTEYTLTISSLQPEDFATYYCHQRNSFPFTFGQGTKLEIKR	0.5 relative to parental Fab
